Target: Itk^32K L351A (Homo sapiens, UniProt Q08881, L351A)
Construct: Human Itk^171–620 (Itk^32K); GST (cleaved yes); made in house; host or cells: baculovirus-infected Sf9 insect cells
Sequence (Q08881 171-620 L351A): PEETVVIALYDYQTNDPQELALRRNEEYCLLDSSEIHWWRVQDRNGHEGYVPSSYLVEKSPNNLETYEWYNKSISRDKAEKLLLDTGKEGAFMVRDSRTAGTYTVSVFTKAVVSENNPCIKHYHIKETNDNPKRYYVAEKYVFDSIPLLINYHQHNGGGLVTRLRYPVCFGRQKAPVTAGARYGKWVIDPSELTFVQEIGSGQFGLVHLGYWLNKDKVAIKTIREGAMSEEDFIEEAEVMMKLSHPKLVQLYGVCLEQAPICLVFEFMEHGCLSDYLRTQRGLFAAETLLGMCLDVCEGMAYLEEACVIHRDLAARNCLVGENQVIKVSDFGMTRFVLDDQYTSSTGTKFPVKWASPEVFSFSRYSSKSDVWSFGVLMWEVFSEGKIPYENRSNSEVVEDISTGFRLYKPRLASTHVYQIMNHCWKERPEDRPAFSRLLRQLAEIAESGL
Assay: Fluorescence anisotropy binding of Mant-labelled nucleotides
Details: Itk^32K L351A non-phosphorylated; read-out: Kd
Test Readout: Kd (µM)
Numbers only; they are read as µM.

Q: Quick one: Kd of Nc1ncnc2c1ncn2[C@@H]1O[C@H](COP(=O)(O)OP(=O)(O)O)[C@@H](O)[C@H]1O [ADP] ?
A: 21

====

Observed pKi for Src^32KΔC (Mus musculus), reported per entry below.
As a rule, pKi stands for the negative log10 of the concentration, concentration in M.

• Nc1ncnc2c1ncn2[C@@H]1O[C@H](COP(=O)(O)OP(=O)(O)O)[C@@H](O)[C@H]1O = 4.52

Q: Quick one: pKi of "Nc1ncnc2c1ncn2[C@@H]1O[C@H](COP(=O)(O)OP(=O)(O)NP(=O)(O)O)[C@@H](O)[C@H]1O" ?
A: 3.16
